Test system: PRMT1 (protein arginine N-methyltransferase 1)
Assay: PRMT1 binders on small-molecule microarrays, primary screen, biochemical, small-molecule microarray, 635 nm fluorescence (AID 1088);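 further: binding of Prmt1 protein to compounds spotted on small-molecule microarray slides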
Settings: small-molecule microarray binding, higher = more signal
Threshold check on composite z-score: at or above 1 gives MET, strictly below gives NOT MET.

Please review the following examples before continuing.
* CCOC(=O)[C@H](CC(C)C)NC(=O)CCC1CC(OC(=O)NCCc2ccc(F)cc2)CC2(CCCC(COC(=O)NCc3cccc(C(F)(F)F)c3)O2)O1 (some centres not stated) | MET
* O=C1[C@H]2[C@H]3[C@H](O)[C@H](O)CC(=NOC[C@@H](O)COCc4ccco4)[C@@H]3CC[C@H]2C(=O)N1Cc1ccccc1 | MET
* O=C1[C@H]2CCn3c(=O)n(Cc4cc5c(cc4Cl)OCO5)c(=O)n3[C@H]2[C@H](O)[C@@H]2O[C@H]12 | NOT MET
* COC(=O)[C@@H]1CC[C@H](C)[C@@H](c2ccc(C)cc2)N1C(=O)c1ccc(C=NO[C@@H](C)c2cc(-c3c(C)cc(C)cc3C)no2)cc1 | MET
* CC(=O)OC[C@H]1O[C@H](C#CCC2CCCCC2)C=C[C@@H]1OC(C)=O | MET

In: Form field: composite z-score at least 1? Entry: CC(C)=CCCC(C)=CCON=C1C[C@@H](O)[C@@H](O)[C@@H]2[C@@H]3C(=O)N(c4cccc(Oc5ccccc5)c4)C(=O)[C@@H]3CC[C@H]12
Out: MET

In: Quick check, composite z-score >= 1? CC(CCN1CCCCc2nc(C)c(C)cc21)=NO[C@@H](C)c1cc(-c2c(C)cc(C)cc2C)no1
Out: NOT MET

###

Target: NADPH oxidase 2 (Homo sapiens)
Assay: NOX2-dependent H2O2 signal modulators, primary screen, NOX inhibitor project, cell-based, HEK293-NOX2, PMA-stimulated, Amplex Red fluorescence (AID 1159)
Conditions: 45 min, higher = more signal, called active from +8 up or from −8 down
attribute_measured: z-score
The response must contain the number and no unit.

Please review the following examples before continuing.
* COC(=O)CC=C[C@@H](C)[C@@H](C=NOC[C@@H](C)[C@H](OCc1ccccc1)C(C)C)OC | 0.64
* COC(=O)[C@H](C)NC(=O)CCC1CC(OC(=O)NCCc2ccc(F)cc2)CC2(CCCC(COC(=O)NCCc3ccccc3OC)O2)O1 (stereo not given in full) | 0.577
* CCOC(=O)[C@H](CC(C)C)NC(=O)CCC1CC(OC(=O)NCCc2ccc(F)cc2)CC2(CCCC(COC(=O)NCc3cccc4ccccc34)O2)O1 (stereo not given in full) | 0.135
* CC(C)=NO[C@H](C)c1cn([C@@H]2COC[C@H]2O)nn1 | 0.0279
* Cc1ccc(S(=O)(=O)N[C@@H]2COC(=O)CC=C[C@@H](C)[C@H](NS(=O)(=O)c3ccc(C)cc3)COC(=O)[C@H](C)NC(=O)CC=C[C@H]2C)cc1 | -6.49

Now look at this entry.
In: GET /values?readout=z-score&system=NADPH oxidase 2 (Homo sapiens)&item= COc1ccc(O[C@H]2C=C[C@@H](c3ccccc3)O[C@@H]2CON=C2c3cc(OC)ccc3O[C@H](c3cccc(OC)c3)[C@H]2O)cc1
Out: -0.0682

###

Some compounds, each annotated with its measured composite z-score.
System: XIP peptide (Xip251-270)
Assay: small-molecule binders of XIP peptide, primary screen, biochemical, small-molecule microarray, fluorescence 635/667 nm, 0.5 µg/mL protein (AID 1183)
Settings: small-molecule microarray binding, fluorescence 635 nm; higher = more signal
Respond using a number only.

- CC(=O)OC[C@H]1O[C@H](C#CCC2CCCCC2)C=C[C@@H]1OC(C)=O: 0.392
- CC1(C)O[C@H]2O[C@H]([C@H](O)CON=C3[C@H]4CCn5c(=O)n(-c6ccccc6)c(=O)n5[C@H]4[C@H](O)[C@@H]4O[C@H]34)[C@H](O)[C@H]2O1: -0.0051
- COC(=O)[C@@H]1CC[C@H](C)[C@@H](c2ccc(Br)cc2)N1: -0.381

Could you now consider this next compound?
In: Fill in the blank: the reported composite z-score of C#CCCCON=C1C[C@@H](O)[C@@H](O)[C@@H]2[C@@H]3C(=O)N(CC)C(=O)[C@@H]3CC[C@H]12 is ____.
Out: -0.423

###

Assay: anti-His antibody binders, primary screen, artefact control for SMM control protein annotation, biochemical, small-molecule microarray, 635 nm fluorescence (AID 1128);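 further: score merges feature fluorescence with signal-to-noise for each printed compound spot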
Conditions: anti-His Alexa647 antibody binding, higher = more signal
# binarize composite z-score: threshold 0.3 inclusive, high side label 1, low side label 0

Worked cases, answers included:
* COC(=O)[C@@H]1CC[C@H](C)[C@@H](c2ccc(Br)cc2)N1C(=O)C(F)(F)F | label 0
* O=C1C=C[C@@H](O)[C@@H]2[C@@H]3C(=O)N(Cc4ccc5c(c4)OCO5)C(=O)[C@@H]3CC[C@@H]12 | label 1
* CCN1C(=O)[C@H]2[C@H]3[C@H](O)[C@H](O)CC(=NO[C@@H]4O[C@H](CO)[C@@H](O)[C@H](O)[C@H]4O)[C@H]3CC[C@H]2C1=O | label 0
* COc1ccc(O[C@H]2C=C[C@@H](c3ccccc3)O[C@@H]2COC(=O)CCC(C)=NOC[C@@H](O)COCc2ccco2)cc1 | label 1
* COc1ccc2c(c1)O[C@@H](c1cccc(C(F)(F)F)c1)[C@H](O)C2=O | label 0

Now for another entry.
In: Check this compound for composite z-score at or above 0.3: CCN1C(=O)[C@H]2[C@H]3[C@H](O)[C@H](O)CC(=NOC[C@@H](O)[C@H]4O[C@@H]5OC(C)(C)O[C@@H]5[C@H]4O)[C@@H]3CC[C@H]2C1=O
Out: label 0

###

Experiment: binders of probe aFSTL3 on microarray, primary screen, stem cell growth factor project, biochemical, small-molecule microarray, fluorescence 635/667 (AID 1064);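 further: measures binding of the biotinylated anti-FSTL3 antibody to printed compounds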
Conditions: higher = more signal
attribute_measured: composite z-score
Just the number, please, no unit after it.

Observe how each entry below is paired with its result.
- CC(=O)OC[C@H]1O[C@H](CC=NOC(C)CN2CCCCc3nc(C)c(C)cc32)C=C[C@@H]1OC(C)=O (stereo partly drawn): -0.349
- C=C(C)C(=O)OC[C@H]1CN2[C@@H](CC[C@@H](C)[C@@H]2c2ccc(Br)cc2)C(=O)O1: -0.223
- CC(C)=NOC(C)CN1CCCc2nc(C)c(C)cc21 (stereo not drawn): -0.39
- C[C@@H]1CC[C@H]2C(=O)O[C@@H](COc3ccc(C(C)(C)C)cc3)CN2[C@H]1c1ccc(Br)cc1: -0.348
- CCOC(=O)[C@H](Cc1ccccc1)NC(=O)CCC1CC(OC(=O)NCc2ccc3c(c2)OCO3)CC2(CCCC(COC(=O)NCCOc3ccccc3)O2)O1 (stereo partly drawn): -0.288
- CC(CCN1CCc2nc(-c3ccccc3)c(-c3ccccc3)cc2C1)=NO[C@@H](C)c1cc(-c2c(C)cc(C)cc2C)no1: 0.037

In: Which composite z-score is listed for CCOC(=O)[C@H](CC(C)C)NC(=O)CCC1CC(OC(=O)NCc2ccc3c(c2)OCO3)CC2(CCCC(COC(=O)NCCc3ccc(Cl)cc3)O2)O1 (stereo partly drawn) ?
Out: -0.549

In: Please look up its composite z-score: CCc1cc2c(nc1CC)CCN(CCC(C)=NOC(C)CN1CCCCc3nc(C)c(C)cc31)C2 (stereo not drawn)
Out: -0.154

###

Experiment: S. cerevisiae RM11-1a growth modifiers, primary screen, strain RM11-1a, OD600, basal, 24 h (AID 1177);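 further: cultures grown under basal conditions with no added stressor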
Conditions: OD600, 24 h, higher = more signal, called active from +8 up or from −8 down
attribute_measured: z-score
Give the figure by itself; no unit, no explanation.

* C=CC[C@@H]1C=C[C@H](ON=C[C@@H](NS(=O)(=O)c2ccc(C)cc2)[C@H](C)C=CCC(=O)OC)[C@@H](CO)O1 | -0.0257

In: For CCO[C@H](c1cc(OC)cc([N+](=O)[O-])c1OC)[C@H](C)[C@@H](OC)[C@H](C)C=CCC(=O)OC , what is its reported z-score?
Out: -0.147

In: Which z-score is listed for CON=C(C)CCC(=O)OC[C@H]1O[C@H](C#Cc2ccccc2)C=C[C@@H]1Oc1ccc(C)cc1 ?
Out: 0.888

In: What value of z-score has been reported for the following compound? CCOC(=O)NN=C1C[C@@H](O)[C@@H](O)[C@@H]2[C@@H]3C(=O)N(CC)C(=O)[C@@H]3CC[C@H]12
Out: 0.355

In: Item under review: C#CCCCON=C1C[C@@H](O)[C@@H](O)[C@@H]2[C@@H]3C(=O)N(C[C@@H]4CCCO4)C(=O)[C@@H]3CC[C@H]12 . Reported z-score?
Out: 0.364

In: # z-score lookup, item CO[C@@H]1COC(=O)CC=C[C@H](C)[C@H](OC)COC(=O)[C@@H]2CCCN2C(=O)CC=C[C@H]1C
Out: -0.203

In: Which value of z-score has been reported for COC(=O)[C@H](C)NC(=O)CCC1CC(OC(=O)NCc2cccc3ccccc23)CC2(CCCC(COC(=O)NCCC(C)C)O2)O1 (some centres not stated) in the records?
Out: -0.186

The reported numbers originate from PubChem BioAssay.
